The measured values listed here are drawn from patent US7741493B2.

# Experimental Target: P2X7 (Homo sapiens)
# Sequence (Q99572 whole entry): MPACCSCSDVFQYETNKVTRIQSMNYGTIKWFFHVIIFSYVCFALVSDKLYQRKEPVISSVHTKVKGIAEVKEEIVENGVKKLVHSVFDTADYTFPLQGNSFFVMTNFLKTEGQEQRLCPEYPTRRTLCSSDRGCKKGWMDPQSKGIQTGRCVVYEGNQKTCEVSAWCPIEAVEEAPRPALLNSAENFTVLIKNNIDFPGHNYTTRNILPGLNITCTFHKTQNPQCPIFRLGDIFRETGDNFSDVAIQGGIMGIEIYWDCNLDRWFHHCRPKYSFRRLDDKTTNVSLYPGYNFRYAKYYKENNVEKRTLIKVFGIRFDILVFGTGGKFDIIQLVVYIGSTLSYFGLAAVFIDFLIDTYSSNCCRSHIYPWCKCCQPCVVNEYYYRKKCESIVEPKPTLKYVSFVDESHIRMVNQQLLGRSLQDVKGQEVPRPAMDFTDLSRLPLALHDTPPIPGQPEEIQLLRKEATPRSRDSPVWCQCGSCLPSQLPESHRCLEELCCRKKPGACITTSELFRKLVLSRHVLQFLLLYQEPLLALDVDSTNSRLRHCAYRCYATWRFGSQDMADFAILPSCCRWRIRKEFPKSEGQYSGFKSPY
# Protocol Summary: YO-PRO-1 dye uptake assay in U373 cells stably expressing P2X7
# Type: cell-based
# Set-up: The complete open reading frame of human P2X7 was amplified from Incyte clone 148057; expressed in transfected cells
# Recorded Conditions: dye uptake through P2X7, U373 cells, 300 μM BzATP, 5 μM YO-PRO-1, test compounds 30 nM to 3 μM; read-out: IC50
# Method: Following a 24-hr exposure to DNA, cells were trypsinized and re-seeded at low density in the presence of […] G418. After incubation for 2 weeks, isolated clones were selected with cloning cylinders and replated in […] G418. Cell clones were then expanded. […] U373 cells stably expressing P2X7 were used to screen drugs via a dye uptake assay. […] Fluorescence in the presence of test substances was compared to that in the absence of test substances (control).
Counter-ions that a name gives are not always drawn.
Readout Label: IC50 (nM)

Molecule	Experimental Target	IC50 (nM)
Clc1cccc([C@H]2NC(NCc3ccccc3)=N[C@H]2c2cccc(Cl)c2)c1 [hydrochloride]	P2X7 (Homo sapiens)	433

A. c1ccc(CCNC2=N[C@@H](c3ccccc3)[C@@H](c3ccccc3)N2)cc1
B. C[C@@]1(c2ccccc2)N=C(CSCc2ccccc2)N[C@@H]1c1ccccc1 (relative stereo)
C. Fc1ccc(CNC2=N[C@@H](c3cccc(F)c3)[C@@H](c3cccc(F)c3)N2)cc1 [hydrochloride]
Request: Endpoint returns the given molecules ordered by ascending IC50. Would you mind listing the labels in the order requested?
Response: C, A, B
(C: 71 nM, A: 113 nM, B: 525 nM)
